# System: EGFR(L858R,T790M);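 note: KINOMEscan scanMAX binding as percent activity remaining versus control; lower means stronger binding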
# RECORDED CONDITIONS: Compound Concentration (nM):1000
ENDPOINT NAME: Percent Control (%)
The figure you give is taken to be in %; do not add the unit.

Answered examples (4):
## Task Fill in reported Percent Control for this entry: NS(=O)(=O)c1ccc(N/N=C2\C(=O)Nc3ccc(Cl)cc32)cc1 [GW280670X]
## Result 100

## Task Fill in reported Percent Control for this entry: CN(C)CCNC(=O)Nc1ccc(N(C)c2ccnc(Nc3ccc(CS(C)(=O)=O)cc3)n2)cc1.Cl [GW830900A]
## Result 60

## Task Fill in reported Percent Control for this entry: CCS(=O)(=O)c1ccc(OC)c(Nc2ncc(-c3cccc(F)c3)o2)c1 [GW621970X]
## Result 100

## Task Fill in reported Percent Control for this entry: Cl.c1ccc(Cc2nc3ccc(Nc4ncnc5ccccc45)cc3[nH]2)cc1 [GR269666A]
## Result 100

Then there is this compound:
## Task Fill in reported Percent Control for this entry: NS(=O)(=O)c1ccc(N/N=C2\C(=O)Nc3ccc(C(=O)NCc4ccncc4)cc32)cc1 [GW300657X]
## Result 100
